Target: KRas^G12D (Homo sapiens, UniProt P01116, G12D)
Construct: […]; biotin (biotinylated)
Sequence (P01116 1-169 isoform P01116-2 G12D): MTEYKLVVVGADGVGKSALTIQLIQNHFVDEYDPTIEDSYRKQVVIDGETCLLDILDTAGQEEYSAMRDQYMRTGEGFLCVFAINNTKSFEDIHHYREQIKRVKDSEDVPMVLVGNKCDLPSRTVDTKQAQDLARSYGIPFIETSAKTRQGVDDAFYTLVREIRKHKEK
Assay: KRas binding assay (TR-FRET displacement of Cy5 labelled tracer)
pIC50: −log10 of the molar value.
METRIC: pIC50

(P) CCc1c(F)ccc2cc(O)cc(N3CCc4c(nc(OC[C@@]56CCCN5C[C@H](F)C6)nc4N4CC5CC(O)CC(C5)C4)C3)c12 (stereo partly drawn) [Example 179]
(Q) CCc1cccc2cccc(N3CCc4c(nc(OCC56CCCN5CCC6)nc4N4CCCC(c5n[nH]c(C6CC6)n5)C4)C3)c12 (stereo not drawn) [Example 108]
(R) CCc1c(F)ccc2cc(O)cc(N3CCc4c(nc(OC[C@@]56CCCN5C[C@H](F)C6)nc4N4CCOCC(CO)C4)C3)c12 (stereo partly drawn) [Example 65]
Consider the compounds listed above. Rank them by pIC50 in ascending numerical order. Output the labels ranked as instructed. Q, P, R
